Target: human carbonic anhydrase 9 (CAIX) (human, UniProt Q16790 38-459)
Test: FACS competition on HT-29 cells against tracer 3BP-2776; pIC50 category A = pIC50 >8.0
Starred links: 1 amine or outer side, 2 acyl side, 3 side chain; linkers in the order of their positions; H or OH if unused. Positions of bridges follow the written chain, without caps; N, C: chain ends. Non-standard residues stand in square brackets, D forms with d. *: point of attachment. DOTA = O=C(O)CN1CCN(CC(=O)O)CCN(CC(=O)*)CCN(CC(=O)O)CC1; mXylylene = c1cc(C[*:1])cc(C[*:2])c1
measure: pIC50

Problem: Give recorded pIC50. Ac-K(DOTA)VYCE[dP]DWLTWAC-NH2 (linker 4-13 via mXylylene; SMILES CC(=O)N[C@@H](CCCCNC(=O)CN1CCN(CC(=O)O)CCN(CC(=O)O)CCN(CC(=O)O)CC1)C(=O)N[C@H](C(=O)N[C@@H](Cc1ccc(O)cc1)C(=O)N[C@H]1CSCc2cccc(c2)CSC[C@@H](C(N)=O)NC(=O)[C@H](C)NC(=O)[C@H](Cc2c[nH]c3ccccc23)NC(=O)[C@H]([C@@H](C)O)NC(=O)[C@H](CC(C)C)NC(=O)[C@H](Cc2c[nH]c3ccccc23)NC(=O)[C@H](CC(=O)O)NC(=O)[C@H]2CCCN2C(=O)[C@H](CCC(=O)O)NC1=O)C(C)C, also called Ac-Lys(DOTA)-Val-Tyr-[Cys(3MeBn)-Glu-pro-Asp-Trp-Leu-Thr-Trp-Ala-Cys]-NH2) [3BP-3427]
Solution: > 8 pic50
